system: SK-OV-3 ovarian; experiment: NCI-60 one-dose screen, 48 h; conditions: 10 µM unless noted
About 83,000 compounds went through this panel and 20% of them were active in at least one assay; those are over-represented in the sample as a whole. Calls of active or inactive are those of the source. The calls were made as follows: active = growth percent below 10; inactive = the rest.
Labels: active, inactive

molecule: COc1cc2c(cc1OCCCOC1=C=C=C(c3ccc4c(c3)c3cc(-c5ccc(OCCCOc6cc7c(cc6OC)C(=O)N6CCC[C@H]6C=N7)cc5)ccc3n4S(=O)(=O)c3ccc(C)cc3)C=C1)N=C[C@@H]1CCCN1C2=O
label class: inactive

molecule: Cc1nnc(NS(=O)(=O)c2ccc(N=Nc3ccc(N)nc3N)cc2)s1
label class: inactive

molecule: C/C=C(\C)C(=O)N[C@H]1CC[C@]2(C)C3CC[C@@]4(C)C(CC[C@@H]4C(C)N(C)C)C3CCC2[C@H]1OC(C)=O (some centres not stated)
label class: active

molecule: Cn1cc(C2=C(c3cccc4ccccc34)C(=O)NC2=O)c2cc(Br)ccc21
label class: inactive

molecule: C=C(CNCCO)[C@@H]1CC[C@]2(CO)CC[C@]3(C)[C@H](CC[C@@H]4[C@@]5(C)CCC(NCCc6ccc(O)cc6)C(C)(C)[C@@H]5CC[C@]43C)[C@@H]12 (some centres not stated)
label class: active

molecule: CCCCC1COc2cccc3c2N1C=C/C3=C\C(=O)N(C)c1cccc(Cl)c1 (configuration not stated)
label class: inactive

molecule: Cc1oc2c(Cc3ccc(NC(=O)c4ccc(Cl)cc4)cc3)ncnc2c1C(=O)NO
label class: inactive

###

system: LOX IMVI melanoma; test: NCI-60 one-dose screen, 48 h; conditions: 10 µM unless noted
The panel holds about 83,000 compounds, 20% with a hit somewhere; the sample as a whole holds those more often. The source made the active and inactive calls. Rule for the calls: active = growth percent below 10; inactive = the rest.
Labels: 1 = active, 0 = inactive

compound: O=C(NCc1ccc(Cn2c(=O)sn(-c3ccc(Cl)cc3)c2=O)cc1)OCc1ccc2c(Cl)cc(Cl)c(O)c2n1
label class: 0
--
compound: COc1ccc(/C=C2\COc3ccc(O)c(O)c3C2=O)c(OC)c1OC
label class: 1
--
compound: CC1=CC=C(NC(=O)/C=C/c2ccccc2)CC1Nc1nccc(-c2cccnc2)n1 (stereo not given)
label class: 0
--
compound: CCOC(=O)c1c(-c2ccc(OC)cc2)c(C#N)c2c(C#N)c(N)nn2c1N
label class: 0
--
compound: O=C(Cc1ccc(F)cc1)c1ccccc1
label class: 0
--
compound: COC(=O)N/N=C/c1c[n+]([O-])c2ccccc2[n+]1[O-]
label class: 0
--
compound: C=C1CC[C@@H]2[C@](C)(COC(C)=O)[C@H](OC(C)=O)CC[C@@]2(C)[C@@H]1CC(Nc1ccc(S(=O)(=O)Nc2nccs2)cc1)C1=CCOC1=O (stereo not given in full)
label class: 1
--
compound: CN(Cc1ccccc1)c1nc(Cl)c(C2CC(c3ccc4c(c3)OCO4)=NN2c2cc(Cl)cc(Cl)c2)s1 (stereo not given)
label class: 0
--
compound: COc1ccc(-c2ccc(-c3ccc(C(=N)N)cn3)o2)cc1Cl
label class: 1
--
compound: CCCCCCCCN(CCCCCCCC)CC(O)c1cc(Cl)ccc1OC (stereo not given)
label class: 0
--
compound: Cc1ccc(C(=O)Nc2ccc(CN3CCN(C)CC3)c(C(F)(F)F)c2)cc1C#Cc1cnc(N)cc1C#N
label class: 1
--
compound: COc1ccc(/C(C)=C(\c2ccc(OCCN3CCOCC3)cc2)c2ccc(OC(=O)C3CCCCC3)cc2)cc1
label class: 0
--
compound: c1cc(NCCCCN2CCOCC2)c2ccc3c(ccc4c(NCCN5CCOCC5)ccnc43)c2n1
label class: 0
--
compound: C#CCOc1cccc(Nc2ncc3ncn(C4CCN(C(=O)CCl)C4)c3n2)c1 (stereo not given)
label class: 1
--
compound: COc1nc(=O)n(C2C=CC(=O)O2)cc1F (stereo not given)
label class: 0
--
compound: COc1ccc(-c2nn3c(-c4cc(F)c(Cl)cc4Cl)nnc3s2)cc1
label class: 0
--
compound: CC1(Cc2ccccc2)CC2=C(C(=O)O1)C(c1ccccc1)NC(=O)N2 (stereo not given)
label class: 0
--
compound: COc1ccc(-c2nnc3n(C)c(=O)c4ccccc4n23)cc1O
label class: 0
--
compound: C#CCOCC1CN(C)C(=O)O1 (stereo not given)
label class: 0
--
compound: CN1C(=O)N(C)C2(c3ccccc3)N(CC(=O)Nc3ccccc3O)C(=O)NC12c1ccccc1 (stereo not given)
label class: 0

###

A collection of compounds and their measured growth
test system: A549/ATCC NSCLC; test: NCI-60 one-dose screen, 48 h (100 = growth as untreated, 0 = no growth, -100 = all killed); conditions: 10 µM unless noted
This is part of a sample that, as a whole, favours compounds with a hit. Of some 83,000 tested, about 20% had one in any assay.
parameter: growth (%)

compound: O=C1OCC2=C1C(c1cccc(C(F)(F)F)c1)c1cc3c(cc1N2CCO)OCCO3 (centres undefined)
test system: A549/ATCC NSCLC
measurement unit: %
recorded value: 16.3
--
compound: N#C/C(=C\c1ccc(Br)cc1)n1nnc2c(F)cccc21
test system: A549/ATCC NSCLC
measurement unit: %
recorded value: 14.8
--
compound: COc1cc(-c2nc(SCCC(C)C)nc(Nc3ccc(F)cc3)c2C#N)cc(OC)c1OC
test system: A549/ATCC NSCLC
measurement unit: %
recorded value: 28.3
--
compound: CN1CCN(c2ccc(/C=C/C(=O)c3ccc(O)cc3)cc2)CC1
test system: A549/ATCC NSCLC
measurement unit: %
recorded value: 97.7
--
compound: CC(=O)N1N=C(c2ccc(F)cc2)CC1c1sc(N(C)Cc2ccccc2)nc1Cl (centres undefined)
test system: A549/ATCC NSCLC
measurement unit: %
recorded value: 88.6
--
compound: O=C(c1cccc(Br)c1)N1CCN(c2ccnc3cc(Cl)ccc23)CC1
test system: A549/ATCC NSCLC
measurement unit: %
recorded value: 73.8
--
compound: CCN(CC)CCOc1ccc(/C(=C(\Cl)c2ccccc2)c2ccccc2)cc1
test system: A549/ATCC NSCLC
measurement unit: %
recorded value: 84.8
--
compound: CCCN1C(=O)/C(=c2\sc3n(c2=O)C2C(NN=3)N(CC)C(=O)N2CC)c2ccccc21 (centres undefined)
test system: A549/ATCC NSCLC
measurement unit: %
recorded value: 26.2
--
compound: NC(N)=NC(N)=NCCCc1ccco1
test system: A549/ATCC NSCLC
measurement unit: %
recorded value: 102
--
compound: COc1cc2cc(NCc3ccncc3)nc(C)c2cc1OC
test system: A549/ATCC NSCLC
measurement unit: %
recorded value: 78.9
--
compound: C=C(C)[C@@H]1CC[C@]2(C(=O)N3CCN(C)CC3)CC[C@]3(C)[C@H](CC[C@@H]4[C@@]5(C)CC(CCCNC(C)=O)(CCCNC(C)=O)[C@H](OC(C)=O)C(C)(C)[C@@H]5CC[C@]43C)[C@@H]12
test system: A549/ATCC NSCLC
measurement unit: %
recorded value: 102
--
compound: N#Cc1ccccc1OCC(=O)Nc1nc2c(s1)COc1ccccc1-2
test system: A549/ATCC NSCLC
measurement unit: %
recorded value: 98.9
--
compound: CCCCSc1ccc2nc(-c3ccc(OCCCN=C(N)N)cc3)cn2c1
test system: A549/ATCC NSCLC
measurement unit: %
recorded value: 83.8
--
compound: CCN(CC)CCCN1C(=O)c2c(c(C)c3c(oc4cc(OC)ccc43)c2C)C1=O
test system: A549/ATCC NSCLC
measurement unit: %
recorded value: 92.5
--
compound: Cc1oc2c(Cc3ccc(NC(=O)c4ccc(Cl)cc4)cc3)ncnc2c1C(=O)NO
test system: A549/ATCC NSCLC
measurement unit: %
recorded value: 88.5
--
compound: Cc1ccc(-c2nc3nc(-c4ccc(Br)cc4)nc(N4CCCNCC4)c3o2)cc1
test system: A549/ATCC NSCLC
measurement unit: %
recorded value: -74.7
--
compound: Cn1cc(-c2csc(-c3cn(CCOC(N)=O)c4ccccc34)n2)c2cccnc21
test system: A549/ATCC NSCLC
measurement unit: %
recorded value: 67.4
--
compound: CN(C)CCCn1c2nc(=O)[nH]c(=O)c-2nc2cc(Cl)c(Cl)cc21
test system: A549/ATCC NSCLC
measurement unit: %
recorded value: 99
--
compound: Cc1ccccc1SSc1ccccc1C
test system: A549/ATCC NSCLC
measurement unit: %
recorded value: 98.8
--
compound: CCN1C(=S)N(CC)C2C1NC(=S)N2/N=C/C=C/c1ccccc1 (centres undefined)
test system: A549/ATCC NSCLC
measurement unit: %
recorded value: 37.6
--
compound: O=C(/C=C/c1ccc(Cl)s1)c1ccc(Cl)s1
test system: A549/ATCC NSCLC
measurement unit: %
recorded value: 96.8
--
compound: CCCn1nc(C(=O)N2CCCCC2)c2c1CCC(N1CCC(c3ccncc3)CC1)C2 (centres undefined)
test system: A549/ATCC NSCLC
measurement unit: %
recorded value: 102
--
compound: Cn1cc(C2=C(c3cccc4ccccc34)C(=O)NC2=O)c2cc(Br)ccc21
test system: A549/ATCC NSCLC
measurement unit: %
recorded value: 91.3
--
compound: O=C1/C(=C/c2ccc(-c3cccc(C(F)(F)F)c3)o2)SC(=S)N1CCc1ccc(O)cc1
test system: A549/ATCC NSCLC
measurement unit: %
recorded value: 75
--
compound: COc1ccc(C(c2cc(OC)c(OC)c(OC)c2)n2ccnc2)cc1O (centres undefined)
test system: A549/ATCC NSCLC
measurement unit: %
recorded value: 12.8
--
compound: COc1ccc(C/C(C)=C(\c2ccc(O)cc2)c2ccc(OCCCN(C)C)cc2)cc1
test system: A549/ATCC NSCLC
measurement unit: %
recorded value: 90.6
--
compound: O=C(NNC(=S)Nc1ccccc1)c1ccncc1
test system: A549/ATCC NSCLC
measurement unit: %
recorded value: 107
--
compound: O=C1C(c2c[nH]c3ccccc23)=C(c2coc3cc(Br)ccc23)C(=O)N1O
test system: A549/ATCC NSCLC
measurement unit: %
recorded value: 98.4
--
compound: O=S(=O)(O)c1ccc(N=Nc2ccc(N=Nc3cccc4ccccc34)c(S(=O)(=O)O)c2)cc1
test system: A549/ATCC NSCLC
measurement unit: %
recorded value: 109
--
compound: Nc1nc(Nc2cccnc2)sc1C(=O)c1ccccc1F
test system: A549/ATCC NSCLC
measurement unit: %
recorded value: 27
--
compound: CCCCCCCCCCCCCCCCCCOc1cccc(CC(=O)OCC[N+](CC)(CC)CC)c1
test system: A549/ATCC NSCLC
measurement unit: %
recorded value: 60
--
compound: Cc1[nH]c(C(=O)Nc2nc3ccc(NC(=O)CCN)cc3s2)c(Cl)c1Cl
test system: A549/ATCC NSCLC
measurement unit: %
recorded value: 95.8
--
compound: CN1CCN(Cc2ccc(NC(=O)c3cccc(C#Cc4c(N)ncc5ccc(F)cc45)c3)cc2C(F)(F)F)CC1
test system: A549/ATCC NSCLC
measurement unit: %
recorded value: -69.6
--
compound: Cn1cc(-c2nonc2-c2cn(C)c3ccc(Br)cc23)c2ccccc21
test system: A549/ATCC NSCLC
measurement unit: %
recorded value: 40.1
